Known IC50 of a selection of compounds
- measurement.target: HSP90 (Homo sapiens, UniProt P07900)
measurement.type: IC50

| compound | test.result |
| --- | --- |
| COc1ccc(CNC(=O)c2ccc(N3[C@@H]4CC[C@H]3C[C@@H](NC(=O)c3cccc(OC)c3C)C4)nc2)cc1 | < 500 nM |
| COc1cccc(C(=O)NC2CC3CCC(C2)N3c2ccc(C(=O)NC(C)c3ccccc3)cn2)c1C (centres unmarked) | < 500 nM |
| COc1cccc(C(=O)NC2CC3CCC(C2)N3c2ccc(C(=O)N[C@H](C)C(C)C)cn2)c1C (some centres unmarked) | 2000 to 10000 nM |
| COc1cccc(C(=O)N[C@H]2C[C@H]3CC[C@@H](C2)N3c2ccc(C(=O)NCc3ccc(C)cc3)cn2)c1C | < 500 nM |
| CC(=O)c1ccc(N2[C@@H]3CC[C@H]2C[C@@H](NC(=O)c2ccc(C(N)=O)c(NC4CC4)c2)C3)nc1 | < 500 nM |
| CC(=O)c1ccc(N2[C@@H]3CC[C@H]2C[C@@H](NC(=O)c2ccc(C(N)=O)c(NCCCNC(C)C)c2)C3)nc1 | 500 to 999 nM |
| C[C@H](NC(=O)c1ccc(N2C3CCC2CC(NC(=O)c2ccc(C(N)=O)c(NCCN4CCOCC4)c2)C3)nc1)c1ccc(N2CCN(C)CC2)cc1 (some centres unmarked) | < 500 nM |
| COCCNc1cc(C(=O)N[C@H]2C[C@H]3CC[C@@H](C2)N3c2ccc(C(N)=O)cn2)ccc1C(N)=O | < 500 nM |
